B1: HDV Ribozyme (parent)
chain: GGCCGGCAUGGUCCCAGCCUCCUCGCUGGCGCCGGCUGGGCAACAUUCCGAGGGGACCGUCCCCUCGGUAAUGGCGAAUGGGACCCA

variants of: B1; assay: self-cleavage, relative activity (ratio to wild type); higher = more cleavage; co-transcriptional
ASSAY_READOUT: self-cleavage
Would you mind answering with just the numeric figure?

Examples from the recorded data:
| ALTERATION | self-cleavage |
| --- | --- |
| G6C C44A | 0.208 |
| G39U A83G | 0.444 |

query: What self-cleavage value was documented for this variant, C62U ?
result: 0.994

query: What self-cleavage value was documented for this variant, U23G G52U ?
result: 0.585

query: What self-cleavage value was documented for this variant, C13U C33A ?
result: 0.0923

query: What self-cleavage value was documented for this variant, U23C C64U ?
result: 0.786

query: What self-cleavage value was documented for this variant, G6U C30U ?
result: 0.131

query: What self-cleavage value was documented for this variant, A56C C64G ?
result: 0.831

query: What self-cleavage value was documented for this variant, C21A A83U ?
result: 0.0739

query: What self-cleavage value was documented for this variant, G35C G76U ?
result: 0.465

query: What self-cleavage value was documented for this variant, C22A U79G ?
result: 0.0573

query: What self-cleavage value was documented for this variant, A71C G82C ?
result: 0.268

query: What self-cleavage value was documented for this variant, U9G C13A ?
result: 0.831

query: What self-cleavage value was documented for this variant, C7G U72C ?
result: 0

query: What self-cleavage value was documented for this variant, G55C C63A ?
result: 1.06

query: What self-cleavage value was documented for this variant, G81C G82A ?
result: 0.0665

query: What self-cleavage value was documented for this variant, U27G C30G ?
result: 0.277
